- measured_on: T1, CD137-hisFc fusion protein (Sino Biological Cat 10041-H03H) (human, UniProt Q07011 24-186)
- T1 construct: Bought; also called recombinant human CD137 (fused with human Fc and His tag); not shown: His tag and human Fc
- experimental_protocol: BLI Octet, Fab
property: koff (s⁻¹)

| binder | property | quantity_unit | result_value |
| --- | --- | --- | --- |
| Fab 5323 (Fab, V domains shown, Fab from E. coli; also called VH19/VL19) VH: EVQLVESGGGLVQPGGSLRLSCAASGFSLSTSGVGVGWIRQAPGKGLEWIGEIYHSGSTYYSPSLKSRVTISRDNSKNTLYLQLNSLKAEDTAVYYCAREGSDVVTGDWFAYWGQGTLVTVSS VL: DIQLTQSPSSLSASVGDRVTITCRASQGISSVLAWYQQKPGKAPKLLIYDASSLESGVPSRFSGSGSGTDFTLTISSLQPEDFATYYCQQGYSLWTFGQGTKVEIKR | koff | s⁻¹ | 0.00812 |
| Fab 5370 (Fab, V domains shown, Fab from E. coli; also called VH32/VL32) VH: EVQLVESGGGLVQPGGSLRLSCAASGFSLSTSGVAVAWIRQAPGKGLEWLALIDWDDDKRYSTSLKSRLTISRDNSKNTLYLQLNSLRAEDTAVYYCAREGSTTVVGDWFDYWGQGTLVTVSS VL: DIQLTQSPSSLSASVGDRVTITCRASQGIGTYLAWYQQKPGKAPKLLIYDASNRATGIPSRFSGSGSGTDFTLTISSLQPEDFATYYCQQGYSLWTFGQGTKVEIKR | koff | s⁻¹ | 0.001 |
| Fab 5353 (Fab, V domains shown, Fab from E. coli; also called VH26/VL26) VH: EVQLVESGGGLVQPGGSLRLSCAASGFTFSSYWIHWVRQAPGKGLEWVSVISGDGDTTYYADSVKGRFTISRDNSKNTLYLQLNSLRAEDTAVYYCARSRGLVLDAFDYWGQGTLVTVSS VL: DIQLTQSPSSLSASVGDRVTITCRASQSVSGRFLAWYQQKPGKAPKLLIYDASSLESGVPSRFSGSGSGTDFTLTISSLQPEDFATYYCQQYDYWPPYTFGQGTKVEIKR | koff | s⁻¹ | 0.00597 |
| Fab 5360 (Fab, V domains shown, Fab from E. coli; also called VH28/VL28) VH: EVQLVESGGGLVQPGGSLRLSCAASGYSITSGHYWNWIRQAPGKGLEWVSGISGDGSSTYYADSVKGRFTISRDNSKNTLYLQLNSLRAEDTAVYYCARGGSDAVLGDWFAYWGQGTLVTVSS VL: DIQLTQSPSSLSASVGDRVTITCRASQSISSYLAWYQQKPGKAPKLLIYDASNLETGVPSRFSGSGSGTDFTLTISSLQPEDFATYYCQQGYSTWTFGQGTKVEIKR | koff | s⁻¹ | 0.00289 |
| Fab 5371 (Fab, V domains shown, Fab from E. coli; also called VH33/VL33) VH: EVQLVESGGGLVQPGGSLRLSCAASGFSLSTSGVGVAWIRQAPGKGLEWVSYISGDGGSTYYADSVKGRFTISRDNSKNTLYLQLNSLRAEDTAVYYCAREGSDVVAGDWFAYWGQGTLVTVSS VL: DIQLTQSPSSLSASVGDRVTITCRASQDISSVLAWYQQKPGKAPKLLIYDASSLESGVPSRFSGSGSGTDFTLTISSLQPEDFATYYCQQGYQIWTFGQGTKVEIKR | koff | s⁻¹ | 0.00479 |
